Sourced from ChEMBL document CHEMBL1156158

- System: Schistosoma mansoni
- Method Notes: Antischistosomal activity in juvenile Schistosoma mansoni infected in mouse assessed as female worm reduction at 400 mg/kg, po after 28 days
- Assay type: functional
- Set-up: scale not given: the % may be the effect or the level left
Measured Parameter: Activity

Please review the entries below; each comes with its answer.
| Compound | Measured Parameter | Result |
| --- | --- | --- |
| O=C(N1CCC(F)(F)CC1)N1CC(=O)N2CCc3ccccc3C2C1 (centres undefined) | Activity | 38% |
| O=C(C1CCC(F)(F)CC1)N1CC(=O)N2CCc3ccccc3C2C1 (centres undefined) | Activity | 44% |
| O=C(N1CCCCC1)N1CC(=O)N2CCc3ccccc3C2C1 (centres undefined) | Activity | 34% |
| O=C1CCC(C(=O)N2CC(=O)N3CCc4ccccc4C3C2)CC1 (racemic) | Activity | 41% |
| O=C1CN(C(=O)C23CC4CC(CC(C4)C2)C3)CC2c3ccccc3CCN12 (centres undefined) | Activity | 56% |
| O=C1CN(C(=O)[C@H]2CC[C@]3(CC2)OO[C@]2(O3)C3CC4CC(C3)CC2C4)CC2c3ccccc3CCN12 (some centres undefined) | Activity | 0% |
| O=C(C1CCCCC1)N1CC(=O)N2CCc3ccccc3C2C1 (centres undefined) | Activity | 18% |
| O=C(N1CCOCC1)N1CC(=O)N2CCc3ccccc3C2C1 (centres undefined) | Activity | 22% |

Can you look up the measured Activity of O=C(N1CCNCC1)N1CC(=O)N2CCc3ccccc3C2C1 (centres undefined) for me?
23%

====

- Test system: Schistosoma mansoni
- Method Notes: Antischistosomal activity in adult Schistosoma mansoni infected in mouse assessed as total worm reduction at 400 mg/kg, po after 28 days
- Type: functional
- Parameters: scale not given: the % may be the effect or the level left
Exercise: for every item that follows, state its recorded Activity.
Give bare numbers, in %.

Please review the entries below; each comes with its answer.
| Compound | Target System | Activity, % |
| --- | --- | --- |
| O=C(N1CCCCC1)N1CC(=O)N2CCc3ccccc3C2C1 (stereo not given) | Schistosoma mansoni | 1 |
| O=C(N1CCOCC1)N1CC(=O)N2CCc3ccccc3C2C1 (stereo not given) | Schistosoma mansoni | 0 |
| O=C(N1CCNCC1)N1CC(=O)N2CCc3ccccc3C2C1 (stereo not given) | Schistosoma mansoni | 0 |
| O=C(C1CCC(F)(F)CC1)N1CC(=O)N2CCc3ccccc3C2C1 (stereo not given) | Schistosoma mansoni | 40 |
| O=C(C1CCCCC1)N1CC(=O)N2CCc3ccccc3C2C1 (stereo not given) [PRAZIQUANTEL] | Schistosoma mansoni | 96 |

Hey, can you go through the list below and give me Activity for every item?
1. O=C1CN(C(=O)C23CC4CC(CC(C4)C2)C3)CC2c3ccccc3CCN12 (stereo not given)
2. O=C1CN(C(=O)[C@H]2CC[C@]3(CC2)OO[C@]2(O3)C3CC4CC(C3)CC2C4)CCN1
3. O=C(N1CCC(F)(F)CC1)N1CC(=O)N2CCc3ccccc3C2C1 (stereo not given)
4. O=C1CCC(C(=O)N2CC(=O)N3CCc4ccccc4C3C2)CC1 (racemic)

1: 0; 2: 1; 3: 12; 4: 79

Can you look up the measured Activity of O=C1CN(C(=O)[C@H]2CC[C@]3(CC2)OO[C@]2(O3)C3CC4CC(C3)CC2C4)CC2c3ccccc3CCN12 (stereo not given in full) for me?
0
